Test system: H9
Test: Compound was tested for the cytotoxicity in H-9 cells infected with HIV-IIIB over 7 days
Format: functional, Homo sapiens
# strict inequality: P24 concentration < 10 ng/mL yields criterion met, everything else yields criterion not met

Past entries and their recorded results:
- SMILES_REPRESENTATION: "CCCCCCOc1ncnc2c1ncn2[C@H]1C[C@H](CO)[C@@H](CO)O1"
  EXPERIMENTAL_SYSTEM: "H9"
  GROUP_LABEL: "criterion met"
- SMILES_REPRESENTATION: "OC[C@H]1C[C@H](n2cnc3c(Cl)ncnc32)O[C@@H]1CO"
  EXPERIMENTAL_SYSTEM: "H9"
  GROUP_LABEL: "criterion met"
- SMILES_REPRESENTATION: "COc1ncnc2c1ncn2[C@@H]1C[C@H](CO)[C@@H](CO)O1"
  EXPERIMENTAL_SYSTEM: "H9"
  GROUP_LABEL: "criterion met"

**Query** Input OC[C@H]1C[C@@H](n2cnc3c(Cl)ncnc32)O[C@@H]1CO ; condition: P24 concentration strictly below 10 ng/mL. Does it hold?
**Result** criterion met

**Query** Input COc1ncnc2c1ncn2[C@H]1C[C@H](CO)[C@@H](CO)O1 ; condition: P24 concentration strictly below 10 ng/mL. Does it hold?
**Result** criterion not met

**Query** Input Cc1cn([C@H]2C[C@H](N=[N+]=[N-])[C@@H](CO)O2)c(=O)[nH]c1=O ; condition: P24 concentration strictly below 10 ng/mL. Does it hold?
**Result** criterion not met

**Query** Input OC[C@H]1C[C@@H](n2cnc3cncnc32)O[C@@H]1CO ; condition: P24 concentration strictly below 10 ng/mL. Does it hold?
**Result** criterion not met

**Query** Input OC[C@H]1C[C@H](n2cnc3cncnc32)O[C@@H]1CO ; condition: P24 concentration strictly below 10 ng/mL. Does it hold?
**Result** criterion met

**Query** Input CCCCCCOc1ncnc2c1ncn2[C@@H]1C[C@H](CO)[C@@H](CO)O1 ; condition: P24 concentration strictly below 10 ng/mL. Does it hold?
**Result** criterion met

**Query** Input Nc1ncnc2c1ncn2[C@H]1C[C@H](CO)[C@@H](CO)O1 ; condition: P24 concentration strictly below 10 ng/mL. Does it hold?
**Result** criterion met
